# targetOrSystem: T1, MICA004.His (human MICA*004 alpha 3 domain, His tagged) (human)
# T1 construct: also called huMICA*004 alpha 3-his
# T1 chain: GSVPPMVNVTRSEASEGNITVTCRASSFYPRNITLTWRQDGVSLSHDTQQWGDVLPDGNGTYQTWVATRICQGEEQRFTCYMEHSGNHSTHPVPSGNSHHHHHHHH
# assayName: SPR, antibody captured;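 also: SPR with antibody held by surface-bound anti-Fc while His-tagged alpha three domains flow over, Kd derived by fitting a one-to-one binding model to sensograms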
readout: pKd
Interpret pKd as the negative base-10 log of the concentration measured in mol/L.

1E6.1.3 (antibody, V domains shown, Mouse hybridoma antibody; constant regions differ by assay) VH: QVQLKESGPGLVAPSQSLSITCTVSGFSLTGSGVNWVRQPPGQGLEWLGMIWGDGNTDYNSALKSRLSISKDNSKSQVFLKMNSLQTDDTARYYCARGAHYGKRWYFDVWGAGTTVTVSS VL: DIQMTQTTFSLSASLGDRVTISCSASQGINNYLNWYQQRPDGTVKLLIYYTSTLPSGVPSRFSGSGSGTDYSLTISNLEPEDIASYYCQQYSKLPPTFGGGTKVEIK
7.43
12H10 (antibody, V domains shown, Mouse variable domains; constant regions differ by assay) VH: DVQLQESGPGLVKPSQPLSLTCTVTGYSITSNYAWNWIRQFPGDKLEWMGYISSSGITKSNPSLKSRISITRDTSKNQFFLQLNSLTTEDTATYYCSRWSNWSFDVWGAGTTVTVSS VL: DIQMTQTPSSLSVSLGDRVTINCRASQDIHNYFNWYQQKPDGTIKLLIYYTSRFHSGVPSRFSGSGSGTDYSLTISNLEEEDIATYFCQQGNSLPPTFGGGTKLEIK
8.15
15F11 (antibody, V domains shown, Mouse variable domains; constant regions differ by assay) VH: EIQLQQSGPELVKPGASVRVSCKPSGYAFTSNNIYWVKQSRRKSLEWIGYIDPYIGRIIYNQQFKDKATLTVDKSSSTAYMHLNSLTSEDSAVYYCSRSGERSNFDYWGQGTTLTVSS VL: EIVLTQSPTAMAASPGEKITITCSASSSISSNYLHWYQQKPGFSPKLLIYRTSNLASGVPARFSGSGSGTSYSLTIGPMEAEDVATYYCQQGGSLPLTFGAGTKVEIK
8.91
2E5.2.3 (antibody, V domains shown, Mouse hybridoma antibody; constant regions differ by assay) VH: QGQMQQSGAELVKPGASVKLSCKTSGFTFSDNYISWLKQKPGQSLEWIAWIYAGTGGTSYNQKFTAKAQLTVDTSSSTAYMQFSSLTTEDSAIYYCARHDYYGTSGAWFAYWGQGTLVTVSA VL: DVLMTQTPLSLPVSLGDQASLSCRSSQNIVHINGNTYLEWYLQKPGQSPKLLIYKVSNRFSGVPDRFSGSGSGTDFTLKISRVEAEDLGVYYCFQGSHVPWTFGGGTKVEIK
8.71

Looking up 7D4.6 (antibody, V domains shown, Mouse hybridoma antibody; constant regions differ by assay) VH: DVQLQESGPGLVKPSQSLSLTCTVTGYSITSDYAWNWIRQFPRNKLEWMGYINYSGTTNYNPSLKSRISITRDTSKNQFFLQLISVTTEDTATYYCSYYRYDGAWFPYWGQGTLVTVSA VL: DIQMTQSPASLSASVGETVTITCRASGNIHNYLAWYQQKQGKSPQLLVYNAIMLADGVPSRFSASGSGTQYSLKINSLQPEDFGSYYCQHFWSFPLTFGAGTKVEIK , I see its pKd listed as 8.05

meta.source: patent US20200055939A1
